melting point: recorded values
ASSAY_READOUT: melting point

COMPOUND | TEST_VALUE
Brc1ccc(CC(C(c2ccccc2)c2ccccc2)n2cncn2)cc1 (stereo not shown) | 88 to 91 °C
O=C(c1ccc(Br)cc1)C(C(c1ccccc1)c1ccccc1)n1cncn1 (stereo not shown) | 110 to 113 °C
O=C(CC(C(=O)c1ccc(Br)cc1)n1cncn1)c1ccccc1 (stereo not shown) [Compound 10c] | 149 to 151 °C
O=C(c1ccccc1)C(c1ccccc1)C(C(=O)c1ccc(F)cc1)n1cncn1 (stereo not shown) | 154 to 157 °C
Clc1ccc(CC(C(c2ccccc2)c2ccccc2)n2cncn2)cc1 (stereo not shown) | 93 to 96 °C
O=C(c1ccc(Cl)cc1Cl)C(C(c1ccccc1)c1ccccc1)n1cncn1 (stereo not shown) | 118 to 121 °C
O=C(c1ccccc1)C(Cc1ccccc1)n1cncn1 (stereo not shown) | 145 to 148 °C
O=C(c1ccccc1)C(c1ccccc1)C(C(=O)c1ccc(Cl)cc1)n1cncn1 (stereo not shown) | 174 to 176 °C
O=C(c1ccc(Cl)cc1Cl)C(Cc1ccccc1)n1cncn1 (stereo not shown) | 121 to 123 °C
O=C(c1ccccc1)C(c1ccccc1)C(C(=O)c1ccc(F)cc1F)n1cncn1 (stereo not shown) [Compound 10j] | 114 to 117 °C
